The measurements presented in this section are drawn from IntAct's records for PubMed 23572552.

B1: Golgi resident protein GCP60 (Homo sapiens), Q9H3P7 (parent)
chain: MAAVLNAERLEVSVDGLTLSPDPEERPGAEGAPLLPPPLPPPSPPGSGRGPGASGEQPEPGEAAAGGAAEEARRLEQRWGFGLEELYGLALRFFKEKDGKAFHPTYEEKLKLVALHKQVLMGPYNPDTCPEVGFFDVLGNDRRREWAALGNMSKEDAMVEFVKLLNRCCHLFSTYVASHKIEKEEQEKKRKEEEERRRREEEERERLQKEEEKRRREEEERLRREEEERRRIEEERLRLEQQKQQIMAALNSQTAVQFQQYAAQQYPGNYEQQQILIRQLQEQHYQQYMQQLYQVQLAQQQAALQKQQEVVVAGSSLPTSSKVNATVPSNMMSVNGQAKTHTDSSEKELEPEAAEEALENGPKESLPVIAAPSMWTRPQIKDFKEKIQQDADSVITVGRGEVVTVRVPTHEEGSYLFWEFATDNYDIGFGVYFEWTDSPNTAVSVHVSESSDDDEEEEENIGCEEKAKKNANKPLLDEIVPVYRRDCHEEVYAGSHQYPGRGVYLLKFDNSYSLWRSKSVYYRVYYTR
partner: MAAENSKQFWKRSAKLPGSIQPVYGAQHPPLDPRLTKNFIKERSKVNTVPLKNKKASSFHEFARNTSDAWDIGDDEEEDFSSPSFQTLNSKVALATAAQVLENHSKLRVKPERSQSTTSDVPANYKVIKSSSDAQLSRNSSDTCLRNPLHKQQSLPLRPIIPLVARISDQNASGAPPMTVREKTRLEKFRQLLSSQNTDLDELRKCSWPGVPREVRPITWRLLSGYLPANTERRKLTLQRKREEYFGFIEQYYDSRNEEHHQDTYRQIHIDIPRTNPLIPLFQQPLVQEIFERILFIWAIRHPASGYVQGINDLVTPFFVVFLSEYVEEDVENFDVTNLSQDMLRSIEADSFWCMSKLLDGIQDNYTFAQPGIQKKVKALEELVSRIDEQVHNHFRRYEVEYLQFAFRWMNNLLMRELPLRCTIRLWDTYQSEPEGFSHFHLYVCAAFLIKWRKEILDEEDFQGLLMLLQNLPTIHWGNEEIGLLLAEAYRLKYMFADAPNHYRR

variants of: B1; details: with tb22b_human TBC1D22B
assayEndpoint: effect of a mutation on the interaction

[
  {
    "mutationList": "T254A",
    "assayEndpoint": "effect of a mutation on the interaction",
    "measuredValue": "with no effect"
  },
  {
    "mutationList": "Q259A",
    "assayEndpoint": "effect of a mutation on the interaction",
    "measuredValue": "with no effect"
  },
  {
    "mutationList": "F433A;E434A;W435A",
    "assayEndpoint": "effect of a mutation on the interaction",
    "measuredValue": "with no effect"
  }
]
